Data origin: ChEMBL document CHEMBL5209590

# system: Cationic amino acid transporter 3 (Homo sapiens)
# Sequence (Q8WY07 whole entry): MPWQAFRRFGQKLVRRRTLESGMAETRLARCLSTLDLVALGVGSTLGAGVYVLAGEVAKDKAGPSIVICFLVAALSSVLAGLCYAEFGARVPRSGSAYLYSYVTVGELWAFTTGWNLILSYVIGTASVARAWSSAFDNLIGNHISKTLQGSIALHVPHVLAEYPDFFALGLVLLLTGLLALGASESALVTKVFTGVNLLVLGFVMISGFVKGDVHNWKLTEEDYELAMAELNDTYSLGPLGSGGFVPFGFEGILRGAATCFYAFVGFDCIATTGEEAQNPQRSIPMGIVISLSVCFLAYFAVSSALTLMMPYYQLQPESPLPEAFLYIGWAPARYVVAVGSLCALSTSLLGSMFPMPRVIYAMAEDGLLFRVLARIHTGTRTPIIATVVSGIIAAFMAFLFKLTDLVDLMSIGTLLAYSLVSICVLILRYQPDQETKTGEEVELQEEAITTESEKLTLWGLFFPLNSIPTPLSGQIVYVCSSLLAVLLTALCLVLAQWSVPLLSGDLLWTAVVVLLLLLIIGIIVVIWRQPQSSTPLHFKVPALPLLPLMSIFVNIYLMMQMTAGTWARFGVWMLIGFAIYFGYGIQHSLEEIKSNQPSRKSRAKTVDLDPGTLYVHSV
# test-method-notes: Substrate uptake by the Cationic Amino Acid Transporter (CAT-3, SLC7A3) as assessed by the fluorescent FLIPR membrane potential dye in HEK-293 JumpIN-SLC7A3 cells (PubChem AID: 1745863)
pEC50: −log10 of the molar value.
As shown below, each of these compounds has a reported pEC50 value.
quantity-kind: pEC50

>>> experimental_result("NCCC[C@H](N)C(=O)O")
3.63
>>> experimental_result("N=C(N)NCCC[C@H](N)C(=O)O")
3.55
>>> experimental_result("NCCCC[C@H](N)C(=O)O")
3.80
